target: High affinity nerve growth factor receptor (Homo sapiens, UniProt P04629)
Sequence (P04629 whole entry): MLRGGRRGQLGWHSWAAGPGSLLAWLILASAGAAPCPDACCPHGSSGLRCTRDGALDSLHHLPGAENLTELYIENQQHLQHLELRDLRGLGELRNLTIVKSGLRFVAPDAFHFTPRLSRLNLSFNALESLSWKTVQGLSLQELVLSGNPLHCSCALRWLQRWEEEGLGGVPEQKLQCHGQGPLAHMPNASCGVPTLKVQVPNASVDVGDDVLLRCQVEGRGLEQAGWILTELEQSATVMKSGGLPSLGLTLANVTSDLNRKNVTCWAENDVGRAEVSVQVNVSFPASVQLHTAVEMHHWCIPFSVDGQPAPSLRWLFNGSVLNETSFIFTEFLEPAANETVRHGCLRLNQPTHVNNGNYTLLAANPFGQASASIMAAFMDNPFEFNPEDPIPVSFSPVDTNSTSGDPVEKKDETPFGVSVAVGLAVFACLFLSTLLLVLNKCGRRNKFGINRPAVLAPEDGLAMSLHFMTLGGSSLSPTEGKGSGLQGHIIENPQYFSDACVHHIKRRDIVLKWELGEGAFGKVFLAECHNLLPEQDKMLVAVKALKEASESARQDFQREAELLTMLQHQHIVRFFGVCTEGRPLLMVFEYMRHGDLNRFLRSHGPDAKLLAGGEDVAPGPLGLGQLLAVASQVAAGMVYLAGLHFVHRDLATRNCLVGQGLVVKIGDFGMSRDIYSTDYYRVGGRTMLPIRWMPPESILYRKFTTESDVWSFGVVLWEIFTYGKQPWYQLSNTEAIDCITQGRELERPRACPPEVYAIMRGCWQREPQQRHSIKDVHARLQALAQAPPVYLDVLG
measurement.kind: IC50

// query So what does the record say about IC50 for Cc1ncc(-c2nc(-c3ccccc3)c(NC(=O)N[C@H]3c4cc(F)ccc4C(C)(C)C[C@H]3O)cc2C)cn1 ?
// result < 0.05 µM
